# measured on: PAF receptors of rat polymorphonuclear leucocytes (Rattus norvegicus, UniProt P46002)
# Construct: The suspension of rat polymorphonuclear leucocytes was prepared; endogenous in cells
# Sequence (P46002 whole entry): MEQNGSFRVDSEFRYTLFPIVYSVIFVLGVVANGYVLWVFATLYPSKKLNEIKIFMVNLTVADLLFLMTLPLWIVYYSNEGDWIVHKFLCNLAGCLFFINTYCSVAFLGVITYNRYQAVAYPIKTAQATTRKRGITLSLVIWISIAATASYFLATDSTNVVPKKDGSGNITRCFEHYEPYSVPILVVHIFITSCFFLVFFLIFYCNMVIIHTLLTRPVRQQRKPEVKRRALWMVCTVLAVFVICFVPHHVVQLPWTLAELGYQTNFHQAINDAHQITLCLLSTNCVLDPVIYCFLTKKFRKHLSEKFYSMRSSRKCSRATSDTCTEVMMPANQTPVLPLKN
# assay remarks: competitive binding of [3H]-PAF to its receptors of rat polymorphonuclear leucocytes
# measurement conditions: 37° C., 30 min, read-out: IC50, competition with [3H]-PAF binding
Structures can show the parent of a compound that is named as a salt.
measure: IC50 (µM)
Lab book: enter the figure in µM, no units written.

Specify IC50 for O=C(C=Cc1ccc(C(F)(F)F)cc1)CCN1CCC(Cc2ccccc2)CC1 [Compound 20, hydrochloride] and stop.
55

---

# System: polymorphonuclear leucocytes from rat pleural cavity
# assay remarks: release of β-glucuronidase by polymorphonuclear leucocytes from rat pleural cavity in vitro (PAF as irritant)
# Assay type: cell-based
# measurement conditions: Dose 1 × 10^−5 mol · L^−1; Irritant 1 × 10^−6 mol · L^−1
Counter-ions that a name gives are not always drawn.
Parameter: Inhibition (%) of β-glucuronidase release. Scope: all listed entries.
Your answer is read as %, so omit the unit and give the number.

compound: COc1ccc(C=CC(=O)CCN2CCC(Cc3ccccc3)CC2)cc1 [Compound 22a, hydrochloride]
result: 73.17
--
compound: CCOC(=O)C1CCN(CCC(=O)C=Cc2ccc(Cl)cc2Cl)CC1.Cl
result: 51.07
--
compound: CC(CN1CCN(Cc2ccc3c(c2)OCO3)CC1)C(=O)C=Cc1ccc(Cl)cc1.Cl (centres unmarked)
result: 37.82
--
compound: Cl.O=C(C=Cc1ccc(Cl)cc1Cl)CCN1CCC(Cc2ccccc2)CC1
result: 32.27
--
compound: CCOC(=O)N1CCN(CCC(=O)C=Cc2ccc(OC)cc2)CC1.Cl [Compound 34d]
result: 62.64
--
compound: CCOC(=O)C1CCCN(CCC(=O)C=Cc2ccc(Cl)cc2)C1.Cl (centres unmarked)
result: 20.56
--
compound: COc1ccccc1N1CCN(CCC(=O)C=Cc2ccc(Cl)cc2)CC1.Cl
result: 21.31

Provide one value: measured Inhibition (%) of β-glucuronidase release of O=C(C=Cc1ccc(C(F)(F)F)cc1)CCN1CCC(Cc2ccccc2)CC1 [Compound 20, hydrochloride]
104.03
